# System: K4 kissing-loop RNA reporter;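 further: bound reporter read as fluorescence of individual clusters on recovered sequencing chips by microscopy, with normalized cluster intensities fitted with a binding model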
# ASSAY_OVERVIEW: apparent KD of K4 kissing-loop reporter; higher = weaker reporter binding
# CONDITION_NOTES: Eterna round: R107; input ligand: tryptophan 2.4 mM
// label = Satisfied if apparent KD of K4 kissing-loop reporter is not less than 300 nM, otherwise Not satisfied

Please review the following examples before continuing.
{"columns": ["SEQ", "DISCRETE_LABEL"],
 "data": [
  ["AUUCAUUUCAGAGGAUAUCGCUGGAGAGUGAUGUUCUCCCAUAGUCAGUGAUGUUGGCUAGCUAUGCGAGAAGGCUGUGGGUGGA [Same State FMN B GF 28]", "Satisfied"],
  ["AAGAGGUAGGCGGCCGCCACUAGUUGUGAACACAUACAAGCCAGUGAUGUUGGUAUGGUGGGCGGUAGGACCGGGCCUACCUGAA [Exclusion - Tryptophan B (Freestyle 17)]", "Not satisfied"],
  ["GUGUGGAUCCGAAGGAGCGUCCGCAAUCCAGUGAUGUUGGGUGUUGGUUUUAGUAGACGAGGACAGGUAGGUCGCGGAUUUACAA [Same State Arginie B GF 23]", "Not satisfied"],
  ["UCCUGCAAUCGUCCACGAAAGUGGAUUGAUACCAGAGUCGAAAGACUCCCUUGGCAGCGAGUGAUGUUCGAAGCAGGUAAAUAAA", "Satisfied"]
]}

Please turn your attention to the following entry.
[in] Is reported apparent KD of K4 kissing-loop reporter greater than or equal to 300 nM here: CGAUACGGAAAUACGUGUCUCUAUUCAGAAGGAGCGUGGUAGUACACAGGUAGGUCGCUGAAAUUUAAACUAGUGAUGUUAGACU [JR_SSArginiA_Sub004]
[out] Satisfied

---

# System: MS2 coat protein
# ASSAY_OVERVIEW: apparent KD of MS2 coat protein; higher = weaker reporter binding
# CONDITION_NOTES: Eterna round: R107; input ligand: theophylline 2 mM
Would you kindly list apparent KD of MS2 coat protein for each of these sequences?
Give bare numbers, in nM.

{"columns": ["SEQ", "READING"],
 "data": [
  ["CUGUACAUCUCGGCCGCCACUGACAUGAGGAUCACCCAUGUAGUACCUGAGAUAGACAUAUCUUACAGGACCGGGAGGUGUGCAG [SSTryp B #31]", 9.35]
]}

Below is a list of sequences. For each, state its recorded apparent KD of MS2 coat protein.
1. AGAGCAUUGACGGCCGCCACUCGUGUCACAUGAGGAUCACCCAUGUGAUGGGUGAUAGCCCGGUUGAGGACCGGGUCAAUGCUCA [Omei Tryp SS B v7]
2. UCAUGACAUGGGAAUAAAUAAGAAGGCGAAGGAGCGUGAAGAUUCACAGGUAGGUCGCGCAAAAUACAUGAGGAUCACCCAUGUU [JR_Nu_ExcArginiA_Sub032]
3. UGUAUUGGAAACAGUACUAGUGAUCCGGUCCGAGGACCGGUACGGCCGCCACUCGAAAUUAAUAAACAUGAGGAUCACCCAUGUA [Ex Tryptophan A 11]

[out]
1. 16.2
2. 43.9
3. 20.2

Below is a list of sequences. For each, state its recorded apparent KD of MS2 coat protein.
1. UUGGUACAUGAGGAUCACCCAUGUACUGAAGGAGCGGGACGAAUCUCAGGUAGGUCGCAGACAUGAGGAUCACCCAUGUAUUGGU [Exclusion Arginine A GF 16]
2. AAGACAUGAGGAUCACCCAUGUCGACAAAACGAGGACCGGUACGGCCGCCACUCGAAAGCAAAUGAGCGCAUGCGGCCUGGGUAU [Exclusion Tryp A GF2]
3. AGCUUGUAGUCGGCCGCCACUAAUAGGGAUCCUAUCGAGGCGGGUAACAUGAGGAUCACCCAUGUUAGGACCGGGACAGCGAGGA [Cetian]
4. AUCAUGGCCAUCGAUACCAGCUACAUGAGGAUCACCCAUGUAAACGGCGCGGUGAGAUGUAGCCCUUGGCAGCGAAGGGUCAAGG [Beonrexe]
5. GGGCGCUAUCCCGCGAGGGAUAGCGUUCGUCGAGGACCGGUACGGCCGCCACUCGAACGAGUGGUGACAUGAGGAUCACCCAUGU [Oaa]
6. AGGGACAUGAGGAUCACCCAUGUUGAAACUCGAGGACCGGUACGGCCGCCACUCGUAUAAUCGAUGUCCAUUUGGGAUUCCGGCU [theeternabot_sameState_MS2_Trp_A_17]
7. CACGCGGUGUCGGCCGCCACUGACGCCCGUGGGUCUCCUGACAUGAGGAUCACCCAUGUACAGCGCAGGACCGGGACACCAACAA [Are]

[out]
19
12
11.6
64
55.7
39
64.2

[in] Returns the measured apparent KD of MS2 coat protein for the input sequence. Input: GCGUACGAUCGGGAUACCAGACAUUGCCGUUAGGGUGAACUUGAGGAUCACCCAAGUUUUGUCCCUUGGCAGCCCGAUCGUACGC [ETB NP+V+V2 #9 Diff Apt, Same Structure]
[out] 220

---

Would you kindly list apparent KD of MS2 coat protein for each of these sequences?
# Test system: MS2 coat protein
# ASSAY_OVERVIEW: apparent KD of MS2 coat protein; designed switch direction (-1 OFF switch, 1 ON switch): -1; higher = weaker reporter binding
# CONDITION_NOTES: input ligand: FMN 200 uM

Use the examples below as a reference point.
{"columns": ["SEQ", "MEASURED_PARAMETER", "READING"],
 "data": [
  ["UUUAAAUGAGGAUAUAGGAUCUUAGACAUGAGGAUCACCCAUGUGAAAUCAGACCUAGUCCUAGAAGGCGUAUGAC [Eternabot (L1) Solution 100] (Eterna round: R97, puzzle: Exclusion 5)", "apparent KD of MS2 coat protein", "13.5 nM"],
  ["UUUAUAGUAGGAUAUACAUGAGGAUCACCCAUGUAGUAGGGAAGACCUUGGUGGGAACGUAGAAGGACUUGGAG [Eternabot (L2) Solution 44] (Eterna round: R97, puzzle: Exclusion 3)", "apparent KD of MS2 coat protein", "73.3 nM"],
  ["GCAGCAAAUUCCAUUAAAACCACAUGAGGAUCACCCAUGUCUCAGGAUAUGGUCUGGAUUACAGGCCAGAAGGGAGAAAGCUGC [Eli exng3 - 055] (Eterna round: R96, puzzle: Exclusion NG 3)", "apparent KD of MS2 coat protein", "10.1 nM"]
]}

Below is a list of sequences. For each, state its recorded apparent KD of MS2 coat protein.
1. CCGCUGUGAGGAUAUUAGUAGUAGUCAGAAAAGACUAUUACUGAGAAGGCACAUGAGGAUCACCCAUGUGGCGG [Mat - Exclusion 4 - Eli Mod - D47] (Eterna round: R97, puzzle: Exclusion 4)
2. AAUACAAGCUAUUGAUCCCACAUGAGGAUCACCCAUGUAGGUGGCCGUGAGACCACCUUUACGAUAGCUCGUCUUAU [Sensor-V1 #51] (Eterna round: R97, puzzle: Sensor, turn-off variant 1)

[out]
1. 31.4 nM
2. 277 nM

Below is a list of sequences. For each, state its recorded apparent KD of MS2 coat protein.
1. GACCUUCCUGUAAGGAUAUCCAUGUAUCAAAGCAUGGAGAAGGUACAUGAGGAUCACCCAUGUCACCCGCGUUA (Eterna round: R97, puzzle: Brourd's mod of Exclusion 4)
2. CACCGUUACUGAGGAUAUGGCACAUGAGGAUCACCCAUGUAAUAAAUGAGAAUUUCGGAUGUAUUCCAGAAGGCAGUAACCGGC [Ostricism 69 - Jieux - Exclusion NG 2] (Eterna round: R96, puzzle: Exclusion NG 2)
3. GGCAUGUGAGGAUAUGUACCUGAGUGCUUUGCGCUCAGGAAACAGAAGGCACAUGAGGAUCACCCAUGUGAAAU [jl-ex4-4.48 ViennaUCT mod] (Eterna round: R97, puzzle: Exclusion 4)
4. GACUUGUCAGGAUAUCUUACAUUAACAUCGUAGUUACCGUUGGAGAAGGGACAUGAGGAUCACCCAUGUUUGGC [tap-tap-tappy25] (Eterna round: R97, puzzle: Exclusion 4)

[out]
1. 17.7 nM
2. 30 nM
3. 96.8 nM
4. 41.8 nM

---

# System: MS2 coat protein
# ASSAY_OVERVIEW: apparent KD of MS2 coat protein; designed switch direction (-1 OFF switch, 1 ON switch): -1; higher = weaker reporter binding
# CONDITION_NOTES: input ligand: FMN 200 uM
// label = fulfilled if apparent KD of MS2 coat protein is not less than 200 nM, otherwise not fulfilled

Please review the following examples before continuing.
{"columns": ["SEQ", "DISCRETE_LABEL"],
 "data": [
  ["GGAAGGAGAGGAUAUGAGGGAGAGAACAUGAGGAUCACCCAUGUGAGACCUCAGGAUCGAUCAGAAGGCUCAGUCC [AK-MS2ROC-r4-exclusion5-12] (Eterna round: R97, puzzle: Exclusion 5)", "fulfilled"],
  ["GUUGUGUGAGGAUAUGCCUGGCCGUGAGGCCAGAUUGAGUGGCAGAAGGUACAUGAGGAUCACCCAUGUACGGG [salish99_ex4_4_004] (Eterna round: R97, puzzle: Exclusion 4)", "not fulfilled"],
  ["CACCCACAUGAGGAUCACCCAUGUGAGGAUAUGAUACUAUGUACUUCGGUACAUAGUAUCAGAAGGCACAGGUG [Ex1-3: 61] (Eterna round: R96, puzzle: Exclusion 1)", "not fulfilled"],
  ["GCUGGUCAAGGAUAUACAUGAGGAUCACCCAUGUGAUCAGCAGUCCUCGGACUGCAAUGUAGAAGGUGACCAGC [E3/1-C1] (Eterna round: R97, puzzle: Exclusion 3)", "not fulfilled"],
  ["GGAUCGAGAGUGAGGAUAUGCUGGUCCUUGGAUCAGCAGAAGGCACAUGAGGAUCACCCAUGUGAUUCCGAUCC [Mat - Exclusion 4 - Eli Mod - D39] (Eterna round: R97, puzzle: Brourd's mod of Exclusion 4)", "fulfilled"],
  ["UUUUUAUAUGAAGGAUAUACUUAACAUGAGGAUCACCCAUGUGGUGUUGUGAGUGAGUGAGUUUAGUAGAAGGUCAAGUAUUAU [JMF's solution 38] (Eterna round: R96, puzzle: Exclusion NG 2)", "fulfilled"]
]}

[in] Is reported apparent KD of MS2 coat protein greater than or equal to 200 nM here: AGCUGUGGCCGAGGAUAUCUAAUAUCCCUAACCGAAAUAUAAUCGGACAUGAGGAUCACCCAUGUAGAGAAGGCGGUCUCAGCA [Eli eng2 - 065] (Eterna round: R96, puzzle: Exclusion NG 2)
[out] fulfilled

Source: the supplement of paper PMC9170038
